B1: Azoarcus group I ribozyme (parent)
chain: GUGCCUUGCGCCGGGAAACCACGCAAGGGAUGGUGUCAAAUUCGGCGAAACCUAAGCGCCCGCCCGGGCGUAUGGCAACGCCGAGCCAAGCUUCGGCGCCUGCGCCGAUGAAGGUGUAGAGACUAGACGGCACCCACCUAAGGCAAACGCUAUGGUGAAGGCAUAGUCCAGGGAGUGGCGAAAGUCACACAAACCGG

- Variants of: B1
- method: reverse-splicing fitness (ratio to wild type); higher = more active; in vitro selection; Mg2+ level not given
Recorded reverse-splicing fitness, one value per entry.

mutation.name | reverse-splicing fitness
A111C A120G C150U C169U U176G | 0.00549
A120C A145U C150G U176A | 0.137
C82G A111U A120U A145U C150G C169G U176C | 0.00282
A120G A145C C150U C169G U176C | 0.107
C82U A111C A120G A145C U176G | 0.00386
C82U A111C A120G A145C C150U U176A | 0.00933
C82A A111U A145G C150A U176G | 0.0112
A120U C150A C169G U176A | 0.0106
C82A A111G A145C C169G | 0.00994
A111C A120C A145G C150G C169G | 0.00738
A111C A120G A145U C150G C169U U176C | 0.0151

Numbers sourced from the RNAGym collection of RNA variant scans (doi:10.1093/molbev/msab373).
